Reported EC50 values are given for each entry in this list.
Target: T1, human Claudin18.2 (human)
T1 construct: also called CLDN18.2
Experiment: FACS, Claudin18.2-HEK293 cells

binder	EC50 [µg/mL]
humanized 232C5E3-VL1.1 + VH1.1 (antibody, human IgG1, kappa, V domains shown, humanized, human IgG1/kappa constant regions) VH: QVQLVQSGAEVKKPGASVKVSCKASGYTFTSHNIHWVRQAPGQRLEWIGYIYPGNGGTNYNQKFKARATITADTSASTAYMELSSLRSEDTAVYFCARDYYGNSFAYWGQGTLVTVSS VL: DIVMTQSPDSLAVSLGERATMSCKSSQSLLNSGNQKNYLTWYQQKPGQPPKLLIYWASTRESGVPDRFSGSGSGTDFTLTISSLQAEDVAVYYCQNGYRFPFTFGQGTKLEIKR	0.224
chimeric 237D2A4 (antibody, human IgG1, kappa, V domains shown, chimeric, human IgG1/kappa constant regions; also called 237D2A4-Chimeric) VH: QVQLKESGPGLVAPSQSLSITCTVSGFSLTSYGVSWVRQPPGKGLEWLGVIWGDGSTNYHSTLISRLRISKDKSKSQVFLKLNSLQTDDTATYYCAKAGRGNALDYWGQGTSVTVSS VL: DIVMTQSPSSLTVTAGEKVTMSCKSSQSLLNSGNQKNYLTWYQQKPGQPPKLLIYWASTRESGVPDRFTGSGSGTDFTLTISSVQAEDLAVYYCQNDYSFPLTFGAGTKLELKR	0.0923
humanized 410H6H3-VH1.2 + VL1 (antibody, human IgG1, kappa, V domains shown, humanized, human IgG1/kappa constant regions) VH: EVQLVESGGGLVQPGGSRRLSCAASGFTFSSSGMHWVRQAPGKGLEWVSYISSGSNTIYYADTLKGRFTISRDNAKNTLFLQMNSLRAEDTAVYYCARIYYGNSFVYWGQGTLVTVSS VL: DIVMTQSPDSLAVSLGERATINCKSSQSLLNSGNQKNYLTWYQQKPGQPPKLLIYWASTRESGVPDRFSGSGSGTDFTLTISSLQAEDVAVYYCQNNYYYPLTFGQGTKLEIKR	0.372
